B1: BTBD10 (parent)
chain: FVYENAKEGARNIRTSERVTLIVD

variants of: B1; assay: protein stability index of a GFP-peptide fusion (GPS, HEK-293T) (PSI 1-6); higher = more stable; conditions: c terminus: a fixed tail appended;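 also: lentivirally expressed fusions sorted by FACS into six bins by GFP to DsRed ratio, PSI derived from sequencing read proportions per bin multiplied by bin number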
METRIC_NAME: protein stability index
I'd appreciate a reply containing only the number, no unit.

Please review the entries below; each comes with its answer.
In [3]: df
Out[3]:
                   sequence_record  result_value
0   FVYEFAKEGARNIRTSERVTLIVD [N5F]           1.9
1  FVYENAKEGARNIYTSERVTLIVD [R14Y]          2.85
2  FVYENAKEGARNIRTSELVTLIVD [R18L]          1.83
3  FVYENAKEGARNIRTSERVTLDVD [I22D]          2.96
4   FVYENAKMGARNIRTSERVTLIVD [E8M]          2.11
5  FVYENAKEGARNIRTSERVTLIVV [D24V]          2.35
6  FVYENAKEGARNIRTSERVTLIVN [D24N]          1.95
7  FVYENAKEGAQNIRTSERVTLIVD [R11Q]          2.16
8  FVYENAKEGARCIRTSERVTLIVD [N12C]          1.51
9   FVYSNAKEGARNIRTSERVTLIVD [E4S]          1.66

What protein stability index value was documented for this variant, FVYENAKEGARNIRTSERVTLIVF [D24F] ?
2.88

Subsequent entry: FVYENAKEGNRNIRTSERVTLIVD [A10N]
2.16

Also check FVYENAKEGARHIRTSERVTLIVD [N12H]
1.5

Now give it for FVYENAKEGACNIRTSERVTLIVD [R11C] too.
2.07

Another variant to check: FVYENAKEGARNIRTSERVTLIED [V23E]
2.89

Same for FVYENAKEGAHNIRTSERVTLIVD [R11H]
2.16

Now the variant FVYENAKEGARNIRTSERVTLIVL [D24L]
2.03
